Weed suppression rate (%) Echinochloa crus-galli values for the molecules below.
tested on: Echinochloa crus-galli; assay: Test Example 12: herbicidal effect test by treatment during growing period in paddy field; format: in vivo; conditions: 120 g/10a; treatment seven days after sowing in flooded paddy pot; assessed 14 days after treatment
propertyMeasured: Weed suppression rate (%) Echinochloa crus-galli

CC(C)N(C(=O)n1cnn(S(=O)(=O)c2cccs2)c1=O)c1ccc(Cl)cc1Br [Compound 11-1034] | 90
CC(C)N(C(=O)n1cnn(S(=O)(=O)C2CCCCC2)c1=O)c1c(F)c(F)cc(F)c1F [Compound 11-299] | 100
Cc1cc(C)c(S(=O)(=O)n2ncn(C(=O)N(c3c(F)cc(F)cc3F)C(C)C)c2=O)c(C)c1 [Compound 11-867] | 100
Cc1ccc(S(=O)(=O)n2ncn(C(=O)N(c3ccccc3)C(C)C)c2=O)cc1 [Compound 11-626] | 90
CC(C)N(C(=O)n1cnn(S(=O)(=O)c2ccc(C(C)(C)C)cc2)c1=O)c1cccc(F)c1F [Compound 11-681] | 100
COc1ccc(S(=O)(=O)n2ncn(C(=O)N(c3cccc(F)c3F)C(C)C)c2=O)cc1 [Compound 11-1149] | 100
CC(C)N(C(=O)n1cnn(S(=O)(=O)c2ccc(C(C)(C)C)cc2)c1=O)c1ccc(Cl)cc1Br [Compound 11-694] | 70

----------
Weed suppression rate (%) Echinochloa crus-galli values for the molecules below.
test system: Echinochloa crus-galli; experiment: Test Example 11: herbicidal effect test by soil treatment in paddy field; format: in vivo; conditions: 120 g/10a active ingredient, 14 days after treatment
propertyMeasured: Weed suppression rate (%) Echinochloa crus-galli

CC(C)N(C(=O)n1cnn(S(=O)(=O)c2ccc(F)cc2)c1=O)c1ccccc1F | 90
CC(C)N(C(=O)n1cnn(S(=O)(=O)c2ccccc2F)c1=O)c1ccc(Br)cc1Cl | 80
CC(C)N(C(=O)n1cnn(S(=O)(=O)c2ccc(C(C)(C)C)cc2)c1=O)c1ccc(Cl)cn1 | 100
CC(C)N(C(=O)n1cnn(S(=O)(=O)c2cccs2)c1=O)c1c(F)cc(F)cc1F | 100
CC(C)N(C(=O)n1cnn(S(=O)(=O)c2c(F)cccc2F)c1=O)c1cccc(F)c1F | 100
CC(C)N(C(=O)n1cnn(S(C)(=O)=O)c1=O)c1c(F)c(F)cc(F)c1F | 100
CC(C)N(C(=O)n1cnn(S(=O)(=O)C2CCCCC2)c1=O)c1c(F)cccc1F | 100
CC(C)N(C(=O)n1cnn(S(C)(=O)=O)c1=O)c1ccccc1F | 90
CC(C)N(C(=O)n1cnn(S(=O)(=O)C2CC2)c1=O)c1ccc(F)c(F)c1F | 100
CC(C)N(C(=O)n1cnn(S(=O)(=O)C2CC2)c1=O)c1ccc(F)cc1Cl | 100
Cc1cc(F)ccc1N(C(=O)n1cnn(S(=O)(=O)C2CC2)c1=O)C(C)C | 100
CC(C)N(C(=O)n1cnn(S(=O)(=O)C2CCCCC2)c1=O)c1ccc(Cl)cc1Br | 100
CC(C)N(C(=O)n1cnn(S(=O)(=O)c2cccs2)c1=O)c1ccc(C#N)cc1Cl | 90
CC(C)N(C(=O)n1cnn(S(=O)(=O)C2CC2)c1=O)c1ccc(F)cc1 | 100
CC(C)N(C(=O)n1cnn(S(=O)(=O)C2CC2)c1=O)c1ccccc1F | 100
CC(C)N(C(=O)n1cnn(S(=O)(=O)c2ccc(F)cc2)c1=O)c1c(F)cc(F)cc1F | 100
CC(C)N(C(=O)n1cnn(S(=O)(=O)c2cccs2)c1=O)c1ccccc1 | 90
CC(C)N(C(=O)n1cnn(S(=O)(=O)c2ccc(F)cc2)c1=O)c1ccccc1 | 100
Cc1ccc(N(C(=O)n2cnn(S(=O)(=O)c3ccccc3F)c2=O)C(C)C)c(F)c1 | 90
CC(C)N(C(=O)n1cnn(S(=O)(=O)c2cccs2)c1=O)c1ccc(Br)cc1Cl | 100
CC(C)N(C(=O)n1cnn(S(=O)(=O)C(C)C)c1=O)c1ccc(Cl)cn1 | 90
CCS(=O)(=O)n1ncn(C(=O)N(c2c(F)cc(F)cc2F)C(C)C)c1=O | 100
CCN(CC)C(=O)n1cnn(S(=O)(=O)c2ccccc2C)c1=O | 90
CC(C)N(C(=O)n1cnn(S(=O)(=O)c2cccc(Cl)c2)c1=O)c1ccccc1 | 80
CC(C)N(C(=O)n1cnn(S(=O)(=O)c2c(F)cccc2F)c1=O)c1ccc(C(F)(F)F)cc1F | 80
CC(C)N(C(=O)n1cnn(S(=O)(=O)c2cccc(F)c2)c1=O)c1ccc(F)c(F)c1F | 100
CC(C)N(C(=O)n1cnn(S(=O)(=O)c2ccccc2)c1=O)c1ccc(F)cc1F | 100
CC(C)N(C(=O)n1cnn(S(=O)(=O)C2CC2)c1=O)c1ncc(Cl)cc1Cl | 90
CC(C)N(C(=O)n1cnn(S(=O)(=O)c2ccccc2F)c1=O)c1c(F)cc(F)cc1F | 100
Cc1ccc(N(C(=O)n2cnn(S(=O)(=O)c3c(F)c(F)c(F)c(F)c3F)c2=O)C(C)C)c(F)c1 | 90
CC(C)N(C(=O)n1cnn(S(=O)(=O)c2ccccc2Cl)c1=O)c1c(F)cc(F)cc1F | 100

----------
system: Echinochloa crus-galli; experiment: Test Example 11: herbicidal effect test by soil treatment in paddy field; assay type: in vivo; conditions: 120 g/10a active ingredient, 14 days after treatment
propertyMeasured: Weed suppression rate (%) Echinochloa crus-galli

CC(C)N(C(=O)n1cnn(S(=O)(=O)C2CCCCC2)c1=O)c1ccccc1F [Compound 11-284] | 100
CC(C)N(C(=O)n1cnn(S(=O)(=O)C2CC2)c1=O)c1cccc(F)c1 [Compound 11-161] | 100
CC(C)N(C(=O)n1cnn(S(=O)(=O)c2cccs2)c1=O)c1cccc(F)c1F [Compound 11-1021] | 100
CC(C)N(C(=O)n1cnn(S(=O)(=O)c2cccs2)c1=O)c1c(F)c(F)cc(F)c1F [Compound 11-1027] | 100
CC(C)N(C(=O)n1cnn(S(=O)(=O)C(C)C)c1=O)c1ncc(Cl)cc1Cl [Compound 11-86] | 90
CCN(CC)C(=O)n1cnn(S(=O)(=O)c2ccccc2C(F)(F)F)c1=O [Compound 11-710] | 70
CC(C)N(C(=O)n1cnn(S(=O)(=O)C2CC2)c1=O)c1ccc(Cl)cc1Br [Compound 11-210] | 90
CC(C)N(C(=O)n1cnn(S(=O)(=O)C2CCCCC2)c1=O)c1c(F)cc(F)cc1F [Compound 11-298] | 100
C=CS(=O)(=O)n1ncn(C(=O)N(c2ccc(F)cc2F)C(C)C)c1=O [Compound 11-134] | 70
CC(C)N(C(=O)n1cnn(S(=O)(=O)c2cccc(C(F)(F)F)c2)c1=O)c1ccc(F)c(F)c1F [Compound 11-726] | 100
CC(C)N(C(=O)n1cnn(S(=O)(=O)C2CCCC2)c1=O)c1ccc(F)cc1F [Compound 11-273] | 100
CC(C)N(C(=O)n1cnn(S(=O)(=O)c2ccccc2Cl)c1=O)c1cccc(F)c1F [Compound 11-511] | 100
CC(C)N(C(=O)n1cnn(S(=O)(=O)c2ccc(Cl)cc2)c1=O)c1cccc(F)c1F [Compound 11-587] | 90
CC(C)N(C(=O)n1cnn(S(=O)(=O)C2CC2)c1=O)c1ccc(F)cc1F [Compound 11-142] | 100
CC(C)N(C(=O)n1cnn(S(=O)(=O)c2ccc(Cl)cc2)c1=O)c1ccccc1F [Compound 11-578] | 90
CCN(CC)C(=O)n1cnn(S(=O)(=O)c2ccc(C)cc2)c1=O [Compound 11-625] | 100

----------
test system: Lindernia pyxidaria; experiment: Test Example 12: herbicidal effect test by treatment during growing period in paddy field; format: in vivo; conditions: 120 g/10a; treatment seven days after sowing in flooded paddy pot; assessed 14 days after treatment
Decide by Weed suppression rate (%) Lindemia pyxidaria: equal to or exceeding 80% means TRUE, less means FALSE.

Cc1ccc(S(=O)(=O)n2ncn(C(=O)N(C)c3ccc(F)cc3F)c2=O)cc1 [Compound 11-1131] | FALSE
Cc1cc(C)c(S(=O)(=O)n2ncn(C(=O)N(c3ccc(F)cc3F)C(C)C)c2=O)c(C)c1 [Compound 11-863] | TRUE
CC(C)N(C(=O)n1cnn(S(=O)(=O)c2ccc(F)cc2)c1=O)c1c(F)cc(F)cc1F [Compound 11-479] | FALSE
CC(C)N(C(=O)n1cnn(S(=O)(=O)c2ccccc2F)c1=O)c1c(F)cc(F)cc1F [Compound 11-406] | FALSE
COc1ccc(S(=O)(=O)n2ncn(C(=O)N(c3ccc(F)c(F)c3F)C(C)C)c2=O)cc1 [Compound 11-1153] | FALSE
Cc1cc(F)ccc1N(C(=O)n1cnn(S(=O)(=O)c2ccc(Cl)cc2)c1=O)C(C)C [Compound 11-601] | FALSE
Cc1cc(F)ccc1N(C(=O)n1cnn(S(=O)(=O)C2CCCCC2)c1=O)C(C)C [Compound 11-307] | FALSE
CC(C)N(C(=O)n1cnn(S(=O)(=O)c2cccc(F)c2)c1=O)c1ccc(F)c(F)c1F [Compound 11-441] | FALSE
CC(C)N(C(=O)n1cnn(S(=O)(=O)C(F)(F)F)c1=O)c1ccc(F)cc1F [Compound 11-95] | FALSE
CC(C)N(C(=O)n1cnn(S(=O)(=O)c2ccc(F)cc2)c1=O)c1ccc(F)c(F)c1F [Compound 11-478] | FALSE
CC(C)N(C(=O)n1cnn(S(=O)(=O)c2c(F)cccc2F)c1=O)c1ccccc1 [Compound 11-762] | FALSE
CC(C)N(C(=O)n1cnn(S(=O)(=O)C(C)C)c1=O)c1ccc(C(F)(F)F)cc1F [Compound 11-76] | FALSE
CC(C)N(C(=O)n1cnn(S(=O)(=O)c2ccc(C(C)(C)C)cc2)c1=O)c1ccc(Cl)cc1Br [Compound 11-694] | FALSE
CC(C)S(=O)(=O)n1ncn(C(=O)N(C)c2ccc(F)cc2F)c1=O [Compound 11-1127] | FALSE
CC(C)N(C(=O)n1cnn(S(=O)(=O)C2CCCCC2)c1=O)c1cccc(F)c1F [Compound 11-293] | TRUE
CC(C)N(C(=O)n1cnn(S(=O)(=O)c2ccc(C(C)(C)C)cc2)c1=O)c1c(F)c(F)cc(F)c1F [Compound 11-687] | FALSE
Cc1cc(C)c(S(=O)(=O)n2ncn(C(=O)N(c3c(F)c(F)cc(F)c3F)C(C)C)c2=O)c(C)c1 [Compound 11-868] | TRUE
